system: SGK3; settings: concentration: 1 μM, replicates: in singlicate; n = 1;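 further: KINOMEscan kinase panel screen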
%Inh by entry:

| Compound | %Inh (%) |
| --- | --- |
| O=C(Nc1n[nH]c2nc(-c3ccccc3)c(Cl)cc12)C1CC1 | 12 |
| Nc1nccc2scc(-c3ccc4c(c3)CCN4C(=O)Cc3ccccc3)c12 | 16 |
| O=c1cc(N2CCOCC2)nc2n(Cc3ccc(F)c(Cl)c3)ccn12 | 19 |
| OCCCNc1nccc(-c2c(-c3cccc(C(F)(F)F)c3)nn3cc(C(F)(F)F)ccc23)n1 | 6 |
| COc1ccc(-c2cc3c(C)nc(N)nc3n([C@H]3CC[C@H](O)CC3)c2=O)cn1 | 0 |
| COc1ccc(Nc2nccc(N3CCC(NS(=O)(=O)c4ccc(NC(C)=O)cc4)C3)n2)cc1 (stereo not drawn) | 0 |
| CCc1ccc(-c2ccc3c(c2)-c2nn(C)cc2S(=O)(=O)N3C)cc1 | 0 |
| Cc1ccc(Oc2ccc(Nc3ncnc4cc[nH]c34)cc2C)cn1 | 5 |
| Cc1cc(Nc2nc(-c3cccc(C)n3)nc3ccccc23)ccn1 | 0 |
| CN1C(=O)C(Nc2cc(Cl)c(O)c(Cl)c2)=C(c2ccc(Cl)cc2)C1=O | 0 |
| COc1cc2ncn(-c3cc(OCc4ccncc4Br)c(C(N)=O)s3)c2cc1OC | 16 |
| COc1cc2ncn(-c3cc(OCc4ccc(S(C)(=O)=O)cc4)c(C(N)=O)s3)c2cc1OC | 5 |
| FC(F)(F)c1ccc(-c2ncn(CCCN3CCOCC3)c2-c2ccncc2)cc1 | 0 |
| CCS(=O)(=O)c1ccc(OC)c(Nc2ncc(-c3ccc(F)cc3)o2)c1.Cl | 0 |
| COc1cccc(C2=C(N(C)c3ccccc3)C(=O)NC2=O)c1 | 3 |

---

system: RSK3(Kin.Dom.2-C-terminal); construct: gene RPS6KA2; settings: concentration: 1 μM, replicates: in singlicate; n = 1
Decision: %Inh >= 7% yields Fulfilled, all other cases yield Not fulfilled.

| Compound | Cat |
| --- | --- |
| Cl.c1ccc(Cn2cnc3cc(Nc4ncnc5ccccc45)ccc32)cc1 | Not fulfilled |
| O=C(NCCNc1ccnc(Nc2ccc(F)cc2)n1)Nc1ccc2c(c1)OCO2 | Not fulfilled |
| CC(C)(C)c1ccc(C(=O)Nc2cn3cc(-c4ccccc4)ccc3n2)cc1 | Fulfilled |
| O=c1cc(N2CCOCC2)nc2n(Cc3ccc(F)c(Cl)c3)ccn12 | Not fulfilled |
| COC(=O)c1c(-c2ccccc2)c2cc(C)ccc2c(=O)n1Cc1ccccc1 | Fulfilled |
| O=C(Nc1n[nH]c2cc(-c3ccccc3F)ccc12)C1CC1 | Not fulfilled |
| CCS(=O)(=O)c1ccc(OC)c(Nc2ncc(-c3ccc(F)cc3)o2)c1.Cl | Not fulfilled |
| Cc1nnc(-c2ccc3ncn(-c4ccc(S(C)=O)cc4)c3c2)o1 (stereo not drawn) | Fulfilled |

---

Readings of %Inh for the listed compounds
system: EPHA2; settings: concentration: 1 μM, replicates: in singlicate; n = 1
Measure: %Inh (%)

| Compound | Target Entity | Measure | Observed Measurement |
| --- | --- | --- | --- |
| COc1cc(Nc2nccc(N3CCC(NC(=O)C(C)c4ccc(Cl)cc4)C3)n2)cc(OC)c1OC (stereo not shown) | EPHA2 | %Inh | 23 |
| Nc1nc(-c2ccccc2F)c(-c2ccnc3ccccc23)s1 | EPHA2 | %Inh | 0 |
| CCC(=O)c1c(-c2ccccc2)c2cc(Cl)ccc2c(=O)n1Cc1cc(C(=O)NC2CC2)n(C)n1 | EPHA2 | %Inh | 3 |
| Cc1nn2c(=O)cc(N3CCOCC3)nc2n1Cc1cccc(Cl)c1Cl | EPHA2 | %Inh | 10 |
| Cc1nnc(-c2ccc(C)c(-c3ccc(C(=O)O)cc3)c2)o1 | EPHA2 | %Inh | 0 |
| COc1cc2ncn(-c3cc(OCc4ccncc4Br)c(C(N)=O)s3)c2cc1OC | EPHA2 | %Inh | 10 |
| COc1cccc(C2=C(Nc3cccc(C(=O)O)c3)C(=O)NC2=O)c1 | EPHA2 | %Inh | 23 |
| CCCNC(=O)Nc1ccc(Oc2ncnc3ccn(C)c23)cc1 | EPHA2 | %Inh | 0 |
| COc1cc(OC)cc(-c2cc3cnc(N)nc3nc2NC(=O)NC(C)(C)C)c1 | EPHA2 | %Inh | 0 |
| COc1cc2ncn(-c3cc(OCCCc4ccccc4)c(C(N)=O)s3)c2cc1OC | EPHA2 | %Inh | 0 |
| Cc1cc(Nc2nc(-c3cccc(C)n3)nc3ccccc23)ccn1 | EPHA2 | %Inh | 0 |
| CCC(=O)c1c(-c2ccccc2)c2cc(Cl)ccc2c(=O)n1Cc1cc(S(C)(=O)=O)n(CCC(C)(C)O)n1 | EPHA2 | %Inh | 22 |
| COC(=O)c1c(-c2ccccc2)c2cc(C)ccc2c(=O)n1Cc1ccccc1 | EPHA2 | %Inh | 0 |
| Cl.NS(=O)(=O)c1cccc(Nc2cc(-c3ccc(F)cc3)n[nH]2)c1 | EPHA2 | %Inh | 0 |
| Cc1ccc(-c2ccc3c(ccc4sc5c(c43)NC[C@@H](C)N=C5N(C)C)n2)cn1 | EPHA2 | %Inh | 0 |
| CCC(=O)c1c(-c2ccccc2)c2cc(Cl)ccc2c(=O)n1Cc1ccc(C(=O)O)cc1 | EPHA2 | %Inh | 0 |
| COc1cc2nccc(Nc3cccc(Oc4ccccc4)c3)c2cc1OC.Cl | EPHA2 | %Inh | 0 |
| Cn1c(=O)c(F)c(Nc2ccc(I)cc2F)c2c(=O)n(OC[C@H](O)CO)cnc21 | EPHA2 | %Inh | 15 |
| O=C1NC(=O)C(c2ccccc2)=C1Nc1cccc(O)c1 | EPHA2 | %Inh | 0 |
| OCCCNc1nccc(-c2c(-c3cccc(C(F)(F)F)c3)nn3cc(C(F)(F)F)ccc23)n1 | EPHA2 | %Inh | 0 |
| Cc1ccc(Oc2ccc(Nc3ncnc4cc[nH]c34)cc2C)cn1 | EPHA2 | %Inh | 16 |
| COc1ccc(-n2cnc3c(N)ncnc32)cc1 | EPHA2 | %Inh | 13 |
| Nc1ncnc2c1ncn2-c1ccc(Cl)cc1 | EPHA2 | %Inh | 12 |
| COc1cccc(-n2cnc3c(N)ncnc32)c1 | EPHA2 | %Inh | 0 |
| C[C@@H]1CC[C@H](C(=O)NC2CCCCC2)CN1c1cc(-c2ccc3c(N)n[nH]c3c2)nc(N)n1 | EPHA2 | %Inh | 23 |

---

Recorded %Inh for the following compounds
system: RSK1(Kin.Dom.2-C-terminal); construct: gene RPS6KA1; conditions: concentration: 1 μM, replicates: in singlicate; n = 1

| Compound | Target Entity | %Inh / % |
| --- | --- | --- |
| COc1ccc(Nc2nccc(N3CCC(NS(=O)(=O)c4ccc(NC(C)=O)cc4)C3)n2)cc1 (stereo not drawn) | RSK1(Kin.Dom.2-C-terminal) | 0 |
| CCc1ccc(-c2ccc3c(c2)-c2nn(C)cc2S(=O)(=O)N3C)cc1 | RSK1(Kin.Dom.2-C-terminal) | 41 |
| COC(=O)c1c(-c2ccccc2)c2cc(Br)ccc2c(=O)n1Cc1ccc(S(C)(=O)=O)cc1 | RSK1(Kin.Dom.2-C-terminal) | 14 |
| COc1cccc(C2=C(N(C)c3ccccc3)C(=O)NC2=O)c1 | RSK1(Kin.Dom.2-C-terminal) | 0 |
| CCC(=O)c1c(-c2ccccc2)c2cc(Cl)ccc2c(=O)n1Cc1ccc(C(=O)O)cc1 | RSK1(Kin.Dom.2-C-terminal) | 0 |
| Nc1nc(N)c2nc(-c3ccccc3)[nH]c2n1 | RSK1(Kin.Dom.2-C-terminal) | 0 |
| CCn1c(-c2nonc2N)nc2ccccc21 | RSK1(Kin.Dom.2-C-terminal) | 4 |
| FC(F)(F)c1ccc(-c2ncn(CCCN3CCOCC3)c2-c2ccncc2)cc1 | RSK1(Kin.Dom.2-C-terminal) | 6 |
| Fc1cccc(CSc2nnc(-c3ccc4c(c3)CCO4)o2)c1 | RSK1(Kin.Dom.2-C-terminal) | 23 |
| OCCCNc1nccc(-c2c(-c3cccc(C(F)(F)F)c3)nn3cc(C(F)(F)F)ccc23)n1 | RSK1(Kin.Dom.2-C-terminal) | 32 |
| Cc1cc(Nc2nc(-c3cccc(C)n3)nc3ccccc23)ccn1 | RSK1(Kin.Dom.2-C-terminal) | 0 |
| COc1ccc(-c2cc3c(C)nc(N)nc3n([C@H]3CC[C@H](OCCO)CC3)c2=O)cn1 | RSK1(Kin.Dom.2-C-terminal) | 9 |

---

A collection of compounds and their measured %Inh
test system: STK33; conditions: concentration: 1 μM, replicates: in singlicate; n = 1

| Compound | %Inh |
| --- | --- |
| CCn1c(-c2ccoc2)nc2cnccc21 | 0% |
| COc1cc2ncn(-c3cc(OCc4ccncc4Br)c(C(N)=O)s3)c2cc1OC | 6% |
| Cc1cc(Nc2nc(-c3cccc(C)n3)nc3ccccc23)ccn1 | 0% |
| COc1cc2nccc(Nc3cccc(Oc4ccccc4)c3)c2cc1OC.Cl | 0% |
| CN(C)c1cc(-c2ccc3c(N)n[nH]c3c2)nc(N)n1 | 0% |
| Nc1n[nH]c2nnc(-c3ccccc3)c(-c3ccccc3)c12 | 0% |
| COc1cc(Nc2nccc(N3CCC(NC(=O)C(C)c4ccc(Cl)cc4)C3)n2)cc(OC)c1OC (stereo not drawn) | 0% |
| COC(=O)c1c(-c2ccccc2)c2cc(Br)ccc2c(=O)n1Cc1ccc(S(C)(=O)=O)cc1 | 2% |
| COc1ccc(CNC(=O)NC2CCN(c3ccnc(Nc4ccc(F)cc4)n3)C2)cc1 (stereo not drawn) | 14% |

Provenance of the data: paper PMC5540273
